- Procedure summary: Metabolic stability in NMRI mouse plasma at 6 MBq/ml, iv after 2 mins by HPLC analysis
- Assay type: ADME, organism-based
- Measurement setup: read-out: Stability
Experimental readout: remaining at 2 min (%)
Answer with a number only, understood to be in %.

Field remaining at 2 min (entry `Cc1c(CCN2CCOCC2)c2cc(OCC[18F])ccc2n1C(=O)c1cccc(Cl)c1Cl` ) reads 84

* * *

- Procedure summary: Metabolic stability in NMRI mouse plasma at 6 MBq/ml, iv after 30 mins by HPLC analysis
- Type: ADME, organism-based
- Measurement setup: read-out: Stability
Experimental readout: remaining at 0.5 h (%)
Answer with a number only, understood to be in %.

Field remaining at 0.5 h (entry `Cc1c(CCN2CCOCC2)c2cc(OCC[18F])ccc2n1C(=O)c1cccc(Cl)c1Cl` ) reads 12
